Method notes: Mouse blood and tissue PK (LC/MS-MS)
Assay type: in vivo
Test context: mouse, whole blood, oral, 40 mg/kg, Model Development Dataset; 40mg/kg_study8; 8 h; read-out: Blood Concentration
Measured quantity: concentration at 8 h (nM)
Numbers only, in nM.

## Input Which concentration at 8 h reading was recorded for the compound CCn1c(-c2cc(N3CCN(C)CC3)cnc2[C@H](C)OC)c2c3cc(ccc31)-c1csc(n1)C[C@H](NC(=O)[C@H]1C[C@@H]1C)C(=O)N1CCC[C@H](N1)C(=O)OCC(C)(C)C2 ?
## Output 1200

* * *

Method notes: Mouse blood and tissue PK (LC/MS-MS)
Type: in vivo
Test context: mouse, tumor, oral, 25 mg/kg, Model Validation Dataset; 25mg/kg_study6; 24 h; read-out: Tumor Concentration
Measured quantity: concentration at 24 h
Express the reported value numerically, then name its unit.

## Input Could you share which concentration at 24 h value was measured for CCn1c(-c2cc(N3CCN(C)CC3)cnc2[C@H](C)OC)c2c3cc(ccc31)-c1csc(n1)C[C@H](NC(=O)[C@H]1C[C@@H]1C)C(=O)N1CCC[C@H](N1)C(=O)OCC(C)(C)C2 [RMC-6236] ?
## Output 890 nM
